Molecular target: DNA topoisomerase 4 subunit A (Escherichia coli K-12, UniProt P0AFI2)
Sequence (P0AFI2 whole entry): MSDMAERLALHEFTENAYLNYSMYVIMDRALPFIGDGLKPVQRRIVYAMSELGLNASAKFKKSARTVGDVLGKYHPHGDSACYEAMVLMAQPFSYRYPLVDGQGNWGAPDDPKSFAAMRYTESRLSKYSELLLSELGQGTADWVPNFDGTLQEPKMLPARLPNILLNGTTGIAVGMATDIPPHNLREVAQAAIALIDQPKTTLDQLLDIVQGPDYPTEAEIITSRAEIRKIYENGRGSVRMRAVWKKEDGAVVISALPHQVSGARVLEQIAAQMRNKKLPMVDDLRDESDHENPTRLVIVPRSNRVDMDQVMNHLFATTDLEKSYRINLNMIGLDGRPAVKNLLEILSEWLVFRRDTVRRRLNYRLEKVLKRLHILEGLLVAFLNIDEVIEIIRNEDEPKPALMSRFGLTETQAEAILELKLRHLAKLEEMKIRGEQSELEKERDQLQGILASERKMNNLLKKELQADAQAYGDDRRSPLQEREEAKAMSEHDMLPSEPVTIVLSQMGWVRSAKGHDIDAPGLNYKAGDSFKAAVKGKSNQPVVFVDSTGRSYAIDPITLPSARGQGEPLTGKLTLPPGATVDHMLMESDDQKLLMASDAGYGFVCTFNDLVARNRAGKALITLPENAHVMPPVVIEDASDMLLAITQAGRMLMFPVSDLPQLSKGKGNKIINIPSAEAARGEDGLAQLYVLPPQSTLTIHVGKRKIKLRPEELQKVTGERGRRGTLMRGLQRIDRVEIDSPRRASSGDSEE
Test: Inhibition of Escherichia coli ATCC 25922 DNA topoisomerase 4 subunit ParC assessed as reduction in decatenation of kinetoplast DNA incubated for 30 mins by ethidium bromide staining based gel electrophoresis method
Label YES when IC50 < 50 µM; otherwise NO.

Example cases with answers are listed next.
In: Please check: IC50 for Cc1cccc2oc(=O)cc(NCCCN3CCN(c4nccc5ccc(F)cc45)CC3)c12 , strictly under 50 µM or not?
Out: YES

In: Please check: IC50 for O=C(NCCCN1CCN(c2nccc3ccccc23)CC1)c1ccccc1 , strictly under 50 µM or not?
Out: NO

In: Please check: IC50 for O=c1cc(NCCCN2CCN(c3nccc4ccc(F)cc34)CC2)c2c(o1)CCS(=O)(=O)C2 , strictly under 50 µM or not?
Out: NO

In: Please check: IC50 for O=c1nc(NC[C@@H](O)CN2CCN(c3nccc4ccc(F)cc34)CC2)c2ccccc2o1 , strictly under 50 µM or not?
Out: YES

Proceed to the following item.
In: Please check: IC50 for O=c1cc(NC[C@H](O)CN2CCN(c3nccc4ccc(F)cc34)CC2)c2ccccc2o1 , strictly under 50 µM or not?
Out: YES

====

The entries below are paired with their reported IC50.
Target: DNA gyrase (Escherichia coli, UniProt P0AES4+P0AES6)
Assay: Inhibition of Escherichia coli DNA gyrase
Assay type: protein-complex assay
# unit: nM | format: bare number

The reported value for COc1ccc2ncc(C#N)c(CCN3CCC(NCc4cc5c(cn4)OCS5)CC3)c2c1 in terms of IC50 is 100

The reported value for COc1ccc2c3conc3c(=O)n(CCN3CCC(NCc4ccc5c(n4)NC(=O)CO5)CC3)c2c1 in terms of IC50 is 1660

// next item, IC50 requested
The reported value for O=C1COc2ccc(N3C[C@H](CCCN[C@@H]4Cn5c(=O)ccc6ccc(F)c4c65)OC3=O)nc2N1 in terms of IC50 is 125

====

Tested on: Enterococcus faecium
Assay: Antibacterial activity against vancomycin resistant and teicoplanin sensitive Enterococcus faecium APV 00420 after 16 to 24 hrs by broth microdilution method
Format: functional
Property Measured: MIC (µg/mL)
# unit: µg/mL | format: bare number

Answered cases to consult:
The reported value for COc1ccc2cc(F)nc(N3CCN(CC(O)CNc4cc(=O)oc5ccc(F)cc45)CC3)c2c1 (racemic) in terms of MIC is 0.12

The reported value for O=c1nc(NCC(O)CN2CCN(c3nc(F)cc4ccc(F)cc34)CC2)c2cc(F)ccc2o1 (racemic) in terms of MIC is 0.25

***
The reported value for O=c1nc(NCC(O)CN2CCN(c3nccc4ccc(F)cc34)CC2)c2cc(F)ccc2o1 (racemic) in terms of MIC is 1

====

The entries below are paired with their reported MIC.
System: Enterococcus faecalis
Assay: Antibacterial activity against Enterococcus faecalis ATCC 29212 after 16 to 24 hrs by broth microdilution method
Type: functional
# unit: µg/mL | format: bare number

Answered cases to consult:
The reported value for O=c1nc(NCC(O)CN2CCN(c3nccc4ccc(F)cc34)CC2)c2cc(F)ccc2o1 (racemic) in terms of MIC is 0.5

The reported value for O=c1nc(NCC(O)CN2CCN(c3nc(F)cc4ccc(F)cc34)CC2)c2cc(F)ccc2o1 (racemic) in terms of MIC is 0.12

The reported value for COc1ccc2cc(F)nc(N3CCN(CC(O)CNc4cc(=O)oc5ccc(F)cc45)CC3)c2c1 (racemic) in terms of MIC is 0.25

The reported value for O=C(O)c1cn(C2CC2)c2cc(N3CCNCC3)c(F)cc2c1=O in terms of MIC is 1

// next item, MIC requested
The reported value for CN[C@H](CC(C)C)C(=O)N[C@H]1C(=O)N[C@@H](CC(N)=O)C(=O)N[C@H]2C(=O)N[C@H]3C(=O)N[C@H](C(=O)N[C@H](C(=O)O)c4cc(O)cc(O)c4-c4cc3ccc4O)[C@H](O)c3ccc(c(Cl)c3)Oc3cc2cc(c3O[C@@H]2O[C@H](CO)[C@@H](O)[C@H](O)[C@H]2O[C@H]2C[C@](C)(N)[C@H](O)[C@H](C)O2)Oc2ccc(cc2Cl)[C@H]1O in terms of MIC is 4

====

System: Enterococcus faecalis
Assay: Antibacterial activity against vancomycin-sensitive Enterococcus faecalis APV 00406 after 16 to 24 hrs by broth microdilution method
Type: functional
Property Measured: MIC

Answered cases to consult:
The reported value for O=c1nc(NCC(O)CN2CCN(c3nc(F)cc4ccc(F)cc34)CC2)c2cc(F)ccc2o1 (racemic) in terms of MIC is 0.06 µg/mL

The reported value for O=c1nc(NCC(O)CN2CCN(c3nccc4ccc(F)cc34)CC2)c2cc(F)ccc2o1 (racemic) in terms of MIC is 0.25 µg/mL

The reported value for CN[C@H](CC(C)C)C(=O)N[C@H]1C(=O)N[C@@H](CC(N)=O)C(=O)N[C@H]2C(=O)N[C@H]3C(=O)N[C@H](C(=O)N[C@H](C(=O)O)c4cc(O)cc(O)c4-c4cc3ccc4O)[C@H](O)c3ccc(c(Cl)c3)Oc3cc2cc(c3O[C@@H]2O[C@H](CO)[C@@H](O)[C@H](O)[C@H]2O[C@H]2C[C@](C)(N)[C@H](O)[C@H](C)O2)Oc2ccc(cc2Cl)[C@H]1O in terms of MIC is 1 µg/mL

// next item, MIC requested
The reported value for O=C(O)c1cn(C2CC2)c2cc(N3CCNCC3)c(F)cc2c1=O in terms of MIC is 64 µg/mL

====

Biological target: DNA gyrase subunit A (Staphylococcus aureus, UniProt P20831)
Sequence (P20831 whole entry): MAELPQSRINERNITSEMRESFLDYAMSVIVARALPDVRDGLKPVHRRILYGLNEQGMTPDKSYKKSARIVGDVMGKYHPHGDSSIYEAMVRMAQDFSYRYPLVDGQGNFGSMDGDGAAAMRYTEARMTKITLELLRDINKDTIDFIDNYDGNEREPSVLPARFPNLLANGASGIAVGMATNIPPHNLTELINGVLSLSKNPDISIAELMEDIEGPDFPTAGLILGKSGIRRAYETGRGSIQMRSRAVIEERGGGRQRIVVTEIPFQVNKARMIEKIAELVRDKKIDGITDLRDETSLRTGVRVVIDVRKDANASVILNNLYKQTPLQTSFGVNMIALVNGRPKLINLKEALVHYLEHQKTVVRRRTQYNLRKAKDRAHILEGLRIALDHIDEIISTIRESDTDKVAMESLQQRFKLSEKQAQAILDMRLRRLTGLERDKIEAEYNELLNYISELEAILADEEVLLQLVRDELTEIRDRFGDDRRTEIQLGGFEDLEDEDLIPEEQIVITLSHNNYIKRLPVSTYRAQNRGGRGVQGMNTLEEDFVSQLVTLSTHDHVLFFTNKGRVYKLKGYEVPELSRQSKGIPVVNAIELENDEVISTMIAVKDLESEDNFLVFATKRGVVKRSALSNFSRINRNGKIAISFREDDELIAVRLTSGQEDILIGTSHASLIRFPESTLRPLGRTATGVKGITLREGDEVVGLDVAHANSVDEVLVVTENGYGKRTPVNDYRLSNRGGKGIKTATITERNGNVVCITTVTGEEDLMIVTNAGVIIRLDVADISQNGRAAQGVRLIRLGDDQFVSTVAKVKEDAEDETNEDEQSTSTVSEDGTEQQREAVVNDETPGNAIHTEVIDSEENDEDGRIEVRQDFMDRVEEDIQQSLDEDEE
Test: Inhibition of Staphylococcus aureus ATCC 29213 DNA gyrase A assessed as reduction in enzyme-mediated supercoiling of relaxed pBR322 DNA by ethidium bromide staining based gel electrophoresis method
Property Measured: IC50

Answered cases to consult:
The reported IC50 value, DNA gyrase subunit A (Staphylococcus aureus, UniProt P20831), for O=c1cc(NCC(O)CN2CCN(c3nccc4ncccc34)CC2)c2cc(F)ccc2o1 (racemic) reads 1.1 µM

The reported IC50 value, DNA gyrase subunit A (Staphylococcus aureus, UniProt P20831), for O=c1cc(NCCCN2CCN(c3nccc4ccccc34)CC2)c2cc(Cl)ccc2o1 reads 5.2 µM

The reported IC50 value, DNA gyrase subunit A (Staphylococcus aureus, UniProt P20831), for O=c1cc(NCCCN2CCN(c3nccc4ccc(F)cc34)CC2)c2c(o1)CCOC2 reads 19 µM

The reported IC50 value, DNA gyrase subunit A (Staphylococcus aureus, UniProt P20831), for O=c1cc(CC(O)CCN2CCN(c3nccc4ccc(F)cc34)CC2)c2ccccc2o1 (racemic) reads 0.8 µM

The reported IC50 value, DNA gyrase subunit A (Staphylococcus aureus, UniProt P20831), for N#Cc1ccc2ccnc(N3CCN(CCCNc4cc(=O)oc5ccccc45)CC3)c2c1 reads 6.8 µM

The reported IC50 value, DNA gyrase subunit A (Staphylococcus aureus, UniProt P20831), for O=c1cc(NCCCN2CCN(c3nccc4ccc(Cl)cc34)CC2)c2ccccc2o1 reads 4.5 µM

The reported IC50 value, DNA gyrase subunit A (Staphylococcus aureus, UniProt P20831), for O=c1cc(NCCCN2CCN(c3nccc4ccc(F)cc34)CC2)c2c(o1)CCS(=O)(=O)C2 reads 7.8 µM

The reported IC50 value, DNA gyrase subunit A (Staphylococcus aureus, UniProt P20831), for O=c1cc(NCCCN2CCN(c3nc(Cl)cc4ccccc34)CC2)c2ccccc2o1 reads 12.1 µM

The reported IC50 value, DNA gyrase subunit A (Staphylococcus aureus, UniProt P20831), for O=c1cc(NCCCN2CCN(c3nccc4ccccc34)CC2)c2c(o1)CCCC2 reads 3.7 µM

The reported IC50 value, DNA gyrase subunit A (Staphylococcus aureus, UniProt P20831), for O=c1nc(NC[C@@H](O)CN2CCN(c3nccc4ccc(F)cc34)CC2)c2ccccc2o1 reads 0.6 µM

***
The reported IC50 value, DNA gyrase subunit A (Staphylococcus aureus, UniProt P20831), for O=c1cc(NC[C@@H](O)CN2CCN(c3nccc4ccc(F)cc34)CC2)c2ccccc2o1 reads 1.6 µM

====

Experiment: Selectivity ratio, ratio of IC50 for human HEK293 cells to MIC for Escherichia coli ATCC 25922
Type: toxicity
Conditions: read-out: Selectivity Index
Property Measured: selectivity ratio
Form field (numeric): enter value without unit.

Answered cases to consult:
The reported value for O=c1nc(NCC(O)CN2CCN(c3nc(F)cc4ccc(F)cc34)CC2)c2cc(F)ccc2o1 (racemic) in terms of selectivity ratio is 51

The reported value for O=c1nc(NCC(O)CN2CCN(c3nccc4ccc(F)cc34)CC2)c2cc(F)ccc2o1 (racemic) in terms of selectivity ratio is 37

***
The reported value for COc1ccc2cc(F)nc(N3CCN(CC(O)CNc4cc(=O)oc5ccc(F)cc45)CC3)c2c1 (racemic) in terms of selectivity ratio is 66
